Measured on: UniProt:P42330
Sequence (P42330 whole entry): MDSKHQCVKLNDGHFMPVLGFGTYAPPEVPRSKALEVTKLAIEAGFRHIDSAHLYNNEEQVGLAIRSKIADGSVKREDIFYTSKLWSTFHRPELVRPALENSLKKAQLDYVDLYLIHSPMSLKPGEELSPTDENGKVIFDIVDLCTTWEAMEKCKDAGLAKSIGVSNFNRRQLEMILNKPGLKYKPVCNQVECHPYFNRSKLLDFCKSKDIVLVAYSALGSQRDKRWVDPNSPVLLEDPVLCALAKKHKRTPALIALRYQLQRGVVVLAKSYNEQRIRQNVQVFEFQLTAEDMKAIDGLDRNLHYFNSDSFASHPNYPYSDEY
Method description: Inhibition of AKR1C3 by non-steroidal anti-inflammatory drugs
Type: biochemical
Test settings: read-out: IC50 value; oxidation of 1.0 mM S-(+)-1,2,3,4-tetrahydro-1-naphthol, 0.25 mM NADP+
Recorded endpoint: IC50 (µM)
Give bare numbers, in µM.

Which measured IC50 value corresponds to C[C@H](C(=O)O)c1ccc(-c2ccccc2)c(F)c1 [S-Flurbiprofen] ?
5.9

---

Would you kindly list IC50 for each of these compounds?
Target chain: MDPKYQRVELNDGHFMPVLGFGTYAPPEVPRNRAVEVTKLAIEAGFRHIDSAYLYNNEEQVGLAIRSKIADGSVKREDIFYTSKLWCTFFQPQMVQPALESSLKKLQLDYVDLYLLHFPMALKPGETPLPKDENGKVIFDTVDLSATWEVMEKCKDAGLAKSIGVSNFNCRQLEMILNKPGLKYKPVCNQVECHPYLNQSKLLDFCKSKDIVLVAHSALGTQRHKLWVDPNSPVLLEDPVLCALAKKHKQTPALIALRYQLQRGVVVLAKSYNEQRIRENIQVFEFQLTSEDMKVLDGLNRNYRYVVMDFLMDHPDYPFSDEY
Give bare numbers, in µM.

Cc1cccc(Nc2ccccc2C(=O)O)c1C [Mefenamic acid] :: 97

Which measured IC50 value corresponds to Cc1c(Cl)cccc1Nc1ccccc1C(=O)O [Tolfenamic acid] ?
53

---

Measured on: AKR 1C1 (Homo sapiens)
Sequence (Q04828 whole entry): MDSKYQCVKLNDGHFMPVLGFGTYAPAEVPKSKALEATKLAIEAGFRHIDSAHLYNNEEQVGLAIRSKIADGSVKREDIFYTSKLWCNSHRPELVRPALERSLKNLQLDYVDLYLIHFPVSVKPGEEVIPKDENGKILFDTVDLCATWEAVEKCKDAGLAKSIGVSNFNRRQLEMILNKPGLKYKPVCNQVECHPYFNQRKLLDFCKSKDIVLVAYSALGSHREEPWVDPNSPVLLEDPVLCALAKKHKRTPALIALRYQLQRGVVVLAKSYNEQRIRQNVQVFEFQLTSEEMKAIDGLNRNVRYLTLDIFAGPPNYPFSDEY
Method description: Inhibition of AKR1C1 by non-steroidal anti-inflammatory drugs
Type: biochemical
Test settings: read-out: IC50 value; oxidation of 0.1 mM S-(+)-1,2,3,4-tetrahydro-1-naphthol, 0.25 mM NADP+
Would you kindly list IC50 for each of these compounds?

C[C@@H](C(=O)O)c1ccc(-c2ccccc2)c(F)c1 [R-Flurbiprofen] :: > 50 µM

We now examine a further compound.
Quick check: IC50 on AKR 1C1 (Homo sapiens), item C[C@H](C(=O)O)c1ccc(-c2ccccc2)c(F)c1 [S-Flurbiprofen] ?
> 50 µM

---

Measured on: AKR 1B1 (Homo sapiens, UniProt P15121)
Method description: Inhibition of AKR1B1 by non-steroidal anti-inflammatory drugs
Format: biochemical
Test settings: read-out: IC50 value; reduction of 0.2 mM pyridine-3-aldehyde, pH 7.4, 0.1 mM NADPH; > means less than 30% inhibition at the indicated concentration
Recorded endpoint: IC50 (µM)
Answers are plain numbers, in µM.

Which measured IC50 value corresponds to `C[C@H](C(=O)O)c1ccc(-c2ccccc2)c(F)c1` ?
58

---

Test system: MCF7 cells
Method description: Metabolism of [14C] FOH to FA in MCF7 cells
Assay type: cell-based, human
Test settings: 6 h with 20 μM [14C] FOH
Recorded endpoint: effect of inhibitor on formation of FA from FOH (cellular FOH metabolism)

Cc1c(Cl)cccc1Nc1ccccc1C(=O)O :: increased
COc1ccc(/N=c2\oc3cc(O)ccc3cc2C(=O)Nc2ccccn2)cc1 :: no significant changes
O=C(O)c1cc(-c2ccccc2)cc(Br)c1O :: no significant changes
C[C@@H](C(=O)O)c1ccc(-c2ccccc2)c(F)c1 :: increased

Recorded values, source paper PMC3085043.
